The entries that follow carry IC50 values tested on Glycogen synthase kinase-3 alpha (Homo sapiens), drawn from several published reports.
Binary label based on IC50 with cut-off 1 µM: below gives criterion met, not below gives criterion not met.

# TODO verify IC50 < 1 µM strictly for this compound: "COc1cc(Nc2cc(Oc3ccc(NC(=O)Nc4cc(C(C)(C)C)cc(NS(C)(=O)=O)c4OC)c4ccccc34)ccn2)cc(OC)c1C(=O)O"
criterion met

# TODO verify IC50 < 1 µM strictly for this compound: "COc1cc(Nc2cc(Oc3ccc(NC(=O)Nc4cc(C(C)(C)C)cc(NS(C)(=O)=O)c4OC)c4ccccc34)ccn2)cc(C(=O)NCCN2CCCN(C)CC2)c1"
criterion not met

# TODO verify IC50 < 1 µM strictly for this compound: "COc1cc(Nc2nccc(Oc3ccc(NC(=O)Nc4cc(C(C)(C)C)cc(P(C)(C)=O)c4OC)c4ccccc34)n2)cc(P(C)(C)=O)c1"
criterion met

# TODO verify IC50 < 1 µM strictly for this compound: "COc1c(NC(=O)Nc2ccc(Oc3ccnc(Nc4cnccn4)n3)c3ccccc23)cc(C(C)(C)C)cc1P(C)(C)=O"
criterion not met

# TODO verify IC50 < 1 µM strictly for this compound: "CC(C)(C)c1cc(NC(=O)Nc2ccc(Oc3ccnc(Nc4ccc5c(cnn5CCN5CCOCC5)c4)n3)c3ccccc23)n(-c2ccc(OCCN3CCOCC3)cc2)n1"
criterion met

# TODO verify IC50 < 1 µM strictly for this compound: "COc1c(NC(=O)Nc2ccc(Oc3ccnc(Nc4ccccc4)n3)c3ccccc23)cc(C(C)(C)C)cc1OCP(C)(C)=O"
criterion met
